Molecular target: T1, Human in house BCMA (Homo sapiens, UniProt Q02223)
T1 construct: CD33 signal peptide (N); TEV site (internal); Fc (C); made in house
T1 sequence (Q02223 with tags, fused parts or gaps limits assumed): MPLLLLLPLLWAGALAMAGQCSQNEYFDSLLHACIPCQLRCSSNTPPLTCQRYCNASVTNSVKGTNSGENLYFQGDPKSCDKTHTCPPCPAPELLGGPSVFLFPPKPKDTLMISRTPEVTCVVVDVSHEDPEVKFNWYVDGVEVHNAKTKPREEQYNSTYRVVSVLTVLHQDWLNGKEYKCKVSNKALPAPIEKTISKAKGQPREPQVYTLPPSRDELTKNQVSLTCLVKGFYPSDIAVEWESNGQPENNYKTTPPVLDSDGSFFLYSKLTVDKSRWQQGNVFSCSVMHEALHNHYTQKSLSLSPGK
Assay: ProteOn analysis of CA8 chimeric and humanised constructs, human in house BCMA
Assay type: binding
Details: Run 1, Human in house BCMA, ProteOn, 25° C.; in s-1 (unit assumed)
Quantity: kd
Lab note: record the figure alone, no unit after it.

Task item: Need kd of CA8 humanised J5M2: humanised CA8 anti-BCMA antibody, VH J5 (SEQ ID NO:21) + VL M2 (SEQ ID NO:35) (antibody, V domains shown, Humansed antibody sequence) VH: QVQLVQSGAEVKKPGSSVKVSCKGSGYTFTNYWMHWVRQAPGQGLEWMGATYRGHSDTYYNQKFKGRVTITADTSTSTAYMELSSLRSEDTAVYYCTRGAIYDGYDVLDNWGQGTLVTVSS VL: DIQLTQSPSSLSASVGDRVTITCSASQDISNYLNWYQQKPGKAPELVIYYTSNLHSGVPSRFSGSGSGTDYTLTISSLQPEDFATYYCQQYRKLPWTFGQGTKLEIKR , thanks.
Reply: 3.21E−05

Turning to the following molecule.
Task item: Need kd of CA8 humanised J3M2: humanised CA8 anti-BCMA antibody, VH J3 (SEQ ID NO:17) + VL M2 (SEQ ID NO:35) (antibody, V domains shown, Humansed antibody sequence) VH: QVQLVQSGAEVKKPGSSVKVSCKGSGYTFTNYWMHWVRQAPGQGLEWMGATYRGHSDTYYNQKFKGRVTITADTSTSTAYMELSSLRSEDTAVYYCTRGAIYNGYDVLDNWGQGTLVTVSS VL: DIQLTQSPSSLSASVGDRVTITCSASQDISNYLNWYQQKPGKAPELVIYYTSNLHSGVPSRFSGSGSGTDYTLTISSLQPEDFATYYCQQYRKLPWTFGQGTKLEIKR , thanks.
Reply: 9.64E−05
